- measurement.target: IRAK4 (Homo sapiens (Human), UniProt Q9NWZ3)
- Sequence (Q9NWZ3 whole entry, species assumed): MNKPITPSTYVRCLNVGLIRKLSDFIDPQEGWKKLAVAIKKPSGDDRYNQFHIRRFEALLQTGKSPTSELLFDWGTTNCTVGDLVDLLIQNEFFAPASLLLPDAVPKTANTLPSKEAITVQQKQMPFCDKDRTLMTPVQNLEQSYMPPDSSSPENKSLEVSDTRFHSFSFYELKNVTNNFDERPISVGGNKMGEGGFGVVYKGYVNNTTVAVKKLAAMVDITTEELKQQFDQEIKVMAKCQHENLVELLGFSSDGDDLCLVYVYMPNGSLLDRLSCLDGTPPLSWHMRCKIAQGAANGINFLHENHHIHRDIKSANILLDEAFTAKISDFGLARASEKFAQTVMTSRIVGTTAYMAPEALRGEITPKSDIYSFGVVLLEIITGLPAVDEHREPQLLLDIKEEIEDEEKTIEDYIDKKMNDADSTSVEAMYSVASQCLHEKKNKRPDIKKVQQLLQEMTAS
- method.notes: IRAK4 Inhibition Assay
- Assay type: biochemical
- test.context: ATP 500 μM; IRAK4 0.6 nM; 60 min at room temperature
- Method: The assays were performed in U-bottom 384-well plates. […] The reaction was initiated by the combination of IRAK4 with substrates and test compounds. The reaction was incubated at room temperature for 60 min. and terminated by adding 45 μL of 35 mM EDTA to each sample. The reaction mixture was analyzed on the Caliper LABCHIP® 3000 (Caliper, Hopkinton, Mass.) by electrophoretic separation of the fluorescent substrate and phosphorylated product.
observation.type: IC50 (nM)

(1) C[C@@H](CO)Nc1cc(Nc2nc3scnc3cc2F)ncc1C(=O)N[C@H]1CC[C@H](O)CC1
(2) CC(C)(O)[C@H](F)CNC(=O)c1cnc(Nc2cc3scnc3cc2F)cc1NC1CCCOC1 (some centres unmarked) [Example 517]
(3) CC(C)Nc1cc(Nc2ccc3ncsc3c2)ncc1C(=O)N[C@H]1CC[C@H](C(=O)NCC(C)(C)O)CC1
(4) CC(=O)N[C@H]1CC[C@H](NC(=O)c2cnc(Nc3ccc4ncsc4c3)cc2NC(C)C)CC1
// rank the listed compounds by IC50, lowest value first Give the labels in the order requested.
4, 3, 2, 1
(4: 2.2 nM, 3: 3.5 nM, 2: 6 nM, 1: 8.7 nM)

(P) CC(C)(O)[C@H](F)CNC(=O)c1cnc(Nc2ccc3nonc3c2)cc1NC1CCC1
(Q) CC(C)Nc1cc(Nc2ccc3ncoc3c2)ncc1C(=O)NC[C@@H](F)C(O)C(C)C (some centres unmarked)
(R) CC(C)(O)[C@H](F)CNC(=O)c1cnc(Nc2ccn3nccc3n2)cc1NC1CCC(F)C1 (some centres unmarked) [Example 255]
Order by IC50, ascending. To answer, arrange all of the labels according to the requested order.
R, Q, P
(R: 2.4 nM, Q: 4 nM, P: 7.2 nM)
